Tested on: SNB-75
Assay: NCI tumour cell line growth inhibition, 48 h
Activity calls are given as the source filed them. Cut-off read from the data, not from the text of the source: active = GI50 up to about 1.1 µM and inactive = higher.
Outcome codes: TRUE = active, FALSE = inactive

[
  {
    "Molecule": "CCn1c(C)nc([N+](=O)[O-])c1Sc1ncc[nH]1",
    "Cat": "FALSE"
  },
  {
    "Molecule": "CC(C)c1ccc(O)c(Cc2cc(C(C)C)cc(Cc3cc(C(C)C)ccc3O)c2O)c1",
    "Cat": "FALSE"
  },
  {
    "Molecule": "CC[C@@]1(O)C(=O)OCc2c1cc1n(c2=O)Cc2cc3ccccc3nc2-1",
    "Cat": "TRUE"
  },
  {
    "Molecule": "COc1cc(C2c3cc4c(cc3C3OC[C@@H]2C3CO)OCO4)cc(OC)c1OC (stereo partly specified)",
    "Cat": "FALSE"
  },
  {
    "Molecule": "CC(C)(CCCCC(C)(C)[N+](C)(C)C)[N+](C)(C)C",
    "Cat": "FALSE"
  },
  {
    "Molecule": "Nc1ncnc2c1ccn2C/C=C/CO",
    "Cat": "FALSE"
  }
]
